SYSTEM: Human muscarinic receptor M1 (Homo sapiens, UniProt P11229)
Sequence (P11229 1-460): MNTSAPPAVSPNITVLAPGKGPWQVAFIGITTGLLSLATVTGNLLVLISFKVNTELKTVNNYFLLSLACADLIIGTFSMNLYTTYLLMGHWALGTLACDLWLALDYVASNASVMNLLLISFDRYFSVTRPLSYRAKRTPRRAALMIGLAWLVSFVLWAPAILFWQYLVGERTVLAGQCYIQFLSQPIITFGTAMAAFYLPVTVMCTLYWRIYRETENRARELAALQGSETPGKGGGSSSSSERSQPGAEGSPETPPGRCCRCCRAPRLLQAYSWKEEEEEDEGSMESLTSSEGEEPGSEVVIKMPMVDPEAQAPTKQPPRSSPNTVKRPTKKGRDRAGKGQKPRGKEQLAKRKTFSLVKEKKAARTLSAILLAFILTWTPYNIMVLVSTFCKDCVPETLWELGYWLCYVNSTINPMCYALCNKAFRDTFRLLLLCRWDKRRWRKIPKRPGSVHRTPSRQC
TEST READOUT: log10(Ki) (log10 of the value in nM)

COMPOUND: CN1C2CCC1CC(OC(=O)C(C)(CO)c1ccccc1)C2 (stereo not shown)
log10(Ki): 0.49
//
COMPOUND: CN1C2CCC1CC(OC(=O)C(C)(CO)c1cccs1)C2 (stereo not shown)
log10(Ki): 0.40
//
COMPOUND: CN1C2CCC1CC(OC(=O)C(CO)(CO)c1ccccc1)C2 (stereo not shown)
log10(Ki): 1.23
//
COMPOUND: CN1C2CCC1CC(OC(=O)C(CO)(CC(F)(F)F)c1ccccc1)C2 (stereo not shown)
log10(Ki): 0.91
//
COMPOUND: CN1C2CCC1CC(OC(=O)C(C)(CF)c1ccccc1)C2 (stereo not shown)
log10(Ki): 1.43
//
COMPOUND: CCC(CO)(C(=O)OC1CC2CCC(C1)N2C)c1ccccc1 (stereo not shown)
log10(Ki): 0.64
//
COMPOUND: CN1C2CCC1CC(OC(=O)C(CO)(Cc1ccccc1)c1ccccc1)C2 (stereo not shown)
log10(Ki): 2.78
//
COMPOUND: COCC(C)(C(=O)OC1CC2CCC(C1)N2C)c1ccccc1 (stereo not shown)
log10(Ki): 1.28
//
COMPOUND: CN1C2CCC1CC(OC(=O)C(F)(CO)c1ccccc1)C2 (stereo not shown)
log10(Ki): 0.54
//
COMPOUND: CN1C2CCC1CC(OC(=O)C(CO)(CC1CC1)c1ccccc1)C2 (stereo not shown)
log10(Ki): 0.53
//
COMPOUND: CN1C2CCC1CC(OC(=O)C(CO)(Cc1ccc(F)cc1)c1ccccc1)C2 (stereo not shown)
log10(Ki): 2.48
//
COMPOUND: COc1ccc(CC(CO)(C(=O)OC2CC3CCC(C2)N3C)c2ccccc2)cc1 (stereo not shown)
log10(Ki): 2.76
//
COMPOUND: CN1C2CCC1CC(NC(=O)C(C)(CO)c1ccccc1)C2 (stereo not shown)
log10(Ki): 2.36

* * *

SYSTEM: Human muscarinic receptor M5 (Homo sapiens)
Construct: host or cells: cell membrane homogenates
Sequence (P08912 1-532): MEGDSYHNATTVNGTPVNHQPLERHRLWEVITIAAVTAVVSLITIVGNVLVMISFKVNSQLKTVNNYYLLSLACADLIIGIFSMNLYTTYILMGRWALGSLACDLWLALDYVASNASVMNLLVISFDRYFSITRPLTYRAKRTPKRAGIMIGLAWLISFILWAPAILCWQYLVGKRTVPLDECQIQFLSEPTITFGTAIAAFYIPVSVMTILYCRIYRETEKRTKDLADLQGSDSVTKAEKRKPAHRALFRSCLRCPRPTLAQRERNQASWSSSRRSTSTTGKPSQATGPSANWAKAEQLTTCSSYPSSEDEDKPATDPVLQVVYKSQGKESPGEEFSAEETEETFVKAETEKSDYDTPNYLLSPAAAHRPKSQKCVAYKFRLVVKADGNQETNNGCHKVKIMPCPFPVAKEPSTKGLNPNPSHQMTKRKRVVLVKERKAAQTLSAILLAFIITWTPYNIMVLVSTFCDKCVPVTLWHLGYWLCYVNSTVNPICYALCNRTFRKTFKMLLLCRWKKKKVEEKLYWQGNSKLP
PROCEDURE DETAILS: Human muscarinic receptor assay M5, [3H]4-DAMP binding
TEST READOUT: Ki (nM)

COMPOUND: CN1C2CCC1CC(OC(=O)C(CO)(CO)c1ccccc1)C2 (centres unmarked)
TEST READOUT: Ki
UNIT INFO: nM
EXPERIMENTAL VALUE: 4.5

COMPOUND: CN1C2CCC1CC(OC(=O)C(CO)(CC1CC1)c1ccccc1)C2 (centres unmarked)
TEST READOUT: Ki
UNIT INFO: nM
EXPERIMENTAL VALUE: 0.99

COMPOUND: CN1C2CCC1CC(OC(=O)C(F)(CO)c1ccccc1)C2 (centres unmarked)
TEST READOUT: Ki
UNIT INFO: nM
EXPERIMENTAL VALUE: 0.71

COMPOUND: CN1C2CCC1CC(OC(=O)C(CO)(Cc1ccc(F)cc1)c1ccccc1)C2 (centres unmarked)
TEST READOUT: Ki
UNIT INFO: nM
EXPERIMENTAL VALUE: 160

COMPOUND: CN1C2CCC1CC(NC(=O)C(C)(CO)c1ccccc1)C2 (centres unmarked)
TEST READOUT: Ki
UNIT INFO: nM
EXPERIMENTAL VALUE: 52

COMPOUND: CN1C2CCC1CC(OC(=O)C(CO)(CC(F)(F)F)c1ccccc1)C2 (centres unmarked)
TEST READOUT: Ki
UNIT INFO: nM
EXPERIMENTAL VALUE: 1.9

COMPOUND: CCC(CO)(C(=O)OC1CC2CCC(C1)N2C)c1ccccc1 (centres unmarked)
TEST READOUT: Ki
UNIT INFO: nM
EXPERIMENTAL VALUE: 1.1

COMPOUND: CN1C2CCC1CC(OC(=O)C(C)(CF)c1ccccc1)C2 (centres unmarked)
TEST READOUT: Ki
UNIT INFO: nM
EXPERIMENTAL VALUE: 7.2

COMPOUND: CN1C2CCC1CC(OC(=O)C(C)(CO)c1cccs1)C2 (centres unmarked)
TEST READOUT: Ki
UNIT INFO: nM
EXPERIMENTAL VALUE: 0.71

COMPOUND: COCC(C)(C(=O)OC1CC2CCC(C1)N2C)c1ccccc1 (centres unmarked)
TEST READOUT: Ki
UNIT INFO: nM
EXPERIMENTAL VALUE: 8.5

COMPOUND: CN1C2CCC1CC(OC(=O)C(C)(CO)c1ccccc1)C2 (centres unmarked)
TEST READOUT: Ki
UNIT INFO: nM
EXPERIMENTAL VALUE: 0.68

* * *

Parameter Ki: see the listing below.
SYSTEM: Human muscarinic receptor M4 (Homo sapiens)
Construct: host or cells: cell membrane homogenates
Sequence (P08173 whole entry): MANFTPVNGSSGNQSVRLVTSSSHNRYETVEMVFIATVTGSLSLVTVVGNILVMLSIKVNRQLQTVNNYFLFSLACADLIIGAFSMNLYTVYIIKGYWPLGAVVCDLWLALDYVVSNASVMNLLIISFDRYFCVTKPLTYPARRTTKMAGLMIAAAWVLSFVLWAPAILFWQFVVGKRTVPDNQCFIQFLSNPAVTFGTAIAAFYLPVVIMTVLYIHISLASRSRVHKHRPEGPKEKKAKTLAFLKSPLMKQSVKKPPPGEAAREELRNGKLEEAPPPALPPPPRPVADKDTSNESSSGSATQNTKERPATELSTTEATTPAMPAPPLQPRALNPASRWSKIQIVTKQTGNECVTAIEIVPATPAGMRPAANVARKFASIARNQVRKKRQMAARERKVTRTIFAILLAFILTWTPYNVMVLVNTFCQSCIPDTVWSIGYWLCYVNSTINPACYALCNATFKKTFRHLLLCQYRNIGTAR
PROCEDURE DETAILS: Human muscarinic receptor assay M4, [3H]4-DAMP binding

COMPOUND: COCC(C)(C(=O)OC1CC2CCC(C1)N2C)c1ccccc1 (centres unmarked)
Ki / nM: 7.4
//
COMPOUND: CN1C2CCC1CC(OC(=O)C(C)(CO)c1cccs1)C2 (centres unmarked)
Ki / nM: 0.39
//
COMPOUND: CN1C2CCC1CC(OC(=O)C(C)(CF)c1ccccc1)C2 (centres unmarked)
Ki / nM: 5.8
//
COMPOUND: CN1C2CCC1CC(NC(=O)C(C)(CO)c1ccccc1)C2 (centres unmarked)
Ki / nM: 83
//
COMPOUND: CCC(CO)(C(=O)OC1CC2CCC(C1)N2C)c1ccccc1 (centres unmarked)
Ki / nM: 0.71

Recorded values, source patent US12247028B2.
